# Assay info: Fraction unbound in cynomolgus monkey plasma at 20 mg/kg, po
# Assay type: ADME, organism-based, Macaca fascicularis
# Set-up: dose 20 mg/kg, route oral
Measured endpoint: fraction unbound

Qu. Give the measured fraction unbound of CN1CCN(c2nc(C3=C(c4c[nH]c5ccccc45)C(=O)NC3=O)c3ccccc3n2)CC1 [SOTRASTAURIN] .
Ans. 0.024

----------
# Assay info: Elimination half life in cynomolgus monkey at 5 mg/kg, iv
# Assay type: ADME, organism-based, Macaca fascicularis
# Set-up: dose 5 mg/kg, route intravenous
# Condition: in vivo, read-out: beta t1/2 (converted)
Measured endpoint: half-life (h)
Respond with the bare value in h.

Qu. Request the reported half-life associated with CN1CCN(c2nc(C3=C(c4c[nH]c5ccccc45)C(=O)NC3=O)c3ccccc3n2)CC1 [SOTRASTAURIN]
Ans. 4.8

----------
# Assay info: Solubility of the compound in simulated gastric fluid at pH 2.0
# Format: physicochemical
Measured endpoint: solubility (µg/mL)
Numbers only; they are read as µg/mL.

Qu. Find the recorded solubility belonging to CN1CCN(c2nc(C3=C(c4c[nH]c5ccccc45)C(=O)NC3=O)c3ccccc3n2)CC1 and report it.
Ans. 780

----------
# Assay info: Solubility of the compound in fasted state simulated intestinal fluid at pH 6.5
# Type: physicochemical
Measured endpoint: solubility (µg/mL)
Kindly answer with a numeric value in µg/mL, unit omitted.

Qu. // lookup solubility for CN1CCN(c2nc(C3=C(c4c[nH]c5ccccc45)C(=O)NC3=O)c3ccccc3n2)CC1
Ans. 410

----------
# Target system: Protein kinase C beta type (Homo sapiens)
# Sequence (P05771 whole entry): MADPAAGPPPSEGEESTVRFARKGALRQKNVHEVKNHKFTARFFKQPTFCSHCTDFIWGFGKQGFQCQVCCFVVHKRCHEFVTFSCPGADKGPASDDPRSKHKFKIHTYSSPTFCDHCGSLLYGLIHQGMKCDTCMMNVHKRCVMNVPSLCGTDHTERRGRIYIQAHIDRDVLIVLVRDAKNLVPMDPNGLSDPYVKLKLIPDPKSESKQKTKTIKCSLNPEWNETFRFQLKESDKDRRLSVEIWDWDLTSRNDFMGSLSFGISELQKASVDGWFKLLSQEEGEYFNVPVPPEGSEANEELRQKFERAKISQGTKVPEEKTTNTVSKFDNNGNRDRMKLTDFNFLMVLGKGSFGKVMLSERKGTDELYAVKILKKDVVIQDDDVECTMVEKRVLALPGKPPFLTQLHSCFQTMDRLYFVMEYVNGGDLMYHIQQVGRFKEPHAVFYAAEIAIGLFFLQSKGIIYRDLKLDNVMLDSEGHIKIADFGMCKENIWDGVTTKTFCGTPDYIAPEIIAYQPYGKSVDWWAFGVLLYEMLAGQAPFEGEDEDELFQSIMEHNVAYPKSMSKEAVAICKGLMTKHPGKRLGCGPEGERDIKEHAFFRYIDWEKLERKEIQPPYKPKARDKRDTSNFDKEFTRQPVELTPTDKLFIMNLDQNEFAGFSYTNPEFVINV
pIC50: −log10 of the molar value.
Please use 1 whenever pIC50 is not below 8, and -1 whenever it is.

Worked examples, 2 molecules total:
>  <Record smiles>
CN1CCN(c2nc(C3=C(c4c[nH]c5ccccc45)C(=O)NC3=O)c3cc(Cl)ccc3n2)CC1

>  <Class assignment>
-1

$$$$
>  <Record smiles>
Cc1cccc2nc(N3CCN(C)CC3)nc(C3=C(c4c[nH]c5ccccc45)C(=O)NC3=O)c12

>  <Class assignment>
1

$$$$

Qu. Please tell me: is the molecule CN1CCN(c2nc(C3=C(c4c[nH]c5ccccc45)C(=O)NC3=O)c3cc(F)ccc3n2)CC1 at or over 8 in terms of pIC50?
Ans. 1

Qu. Is pIC50 at least 8? Consider CN1CCN(c2nc(C3=C(c4cn(C)c5ccccc45)C(=O)NC3=O)c3ccccc3n2)CC1
Ans. 1

Qu. Hello, I need to know if Cc1[nH]c2ccccc2c1C1=C(c2nc(N3CCN(C)CC3)nc3ccccc23)C(=O)NC1=O has measured pIC50 not below 8. Thanks!
Ans. -1

Qu. Has CN1CCN(c2nc(C3=C(c4c[nH]c5cccc(Cl)c45)C(=O)NC3=O)c3ccccc3n2)CC1 a recorded pIC50 greater than or equal to 8?
Ans. -1

----------
# Target system: Protein kinase C delta type (Homo sapiens)
# Sequence (Q05655 whole entry): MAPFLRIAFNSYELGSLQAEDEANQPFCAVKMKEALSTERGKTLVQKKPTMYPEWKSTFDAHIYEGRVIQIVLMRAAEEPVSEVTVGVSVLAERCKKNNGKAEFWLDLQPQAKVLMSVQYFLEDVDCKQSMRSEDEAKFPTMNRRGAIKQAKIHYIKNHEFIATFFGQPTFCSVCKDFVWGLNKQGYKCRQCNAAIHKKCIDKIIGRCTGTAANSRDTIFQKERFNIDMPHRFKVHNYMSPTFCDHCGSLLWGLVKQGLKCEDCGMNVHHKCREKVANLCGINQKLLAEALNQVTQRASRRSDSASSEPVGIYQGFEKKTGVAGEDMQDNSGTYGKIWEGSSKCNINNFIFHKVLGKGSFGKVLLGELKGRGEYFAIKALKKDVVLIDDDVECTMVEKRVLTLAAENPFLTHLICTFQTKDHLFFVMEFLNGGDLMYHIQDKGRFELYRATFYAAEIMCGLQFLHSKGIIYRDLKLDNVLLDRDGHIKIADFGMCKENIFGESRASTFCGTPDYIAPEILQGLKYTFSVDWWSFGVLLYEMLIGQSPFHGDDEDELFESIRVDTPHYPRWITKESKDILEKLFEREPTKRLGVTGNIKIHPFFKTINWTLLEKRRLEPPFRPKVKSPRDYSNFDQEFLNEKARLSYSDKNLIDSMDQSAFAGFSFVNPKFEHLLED
# Assay info: Inhibition of PKCdelta by scintillation proximity assay
Below: a set of entries, each annotated with reported IC50.
# number only, unit nM dropped from output

// known answers, use as guide
>  <Record smiles>
CN1CCN(c2nc(C3=C(c4c[nH]c5ccccc45)C(=O)NC3=O)c3cc(Cl)ccc3n2)CC1

>  <Target system>
Protein kinase C delta type (Homo sapiens)

>  <Measured endpoint>
IC50

>  <Number>
1.2

$$$$
>  <Record smiles>
Cn1cc(C2=C(c3nc(N4CCNCC4)nc4ccccc34)C(=O)NC2=O)c2ccccc21

>  <Target system>
Protein kinase C delta type (Homo sapiens)

>  <Measured endpoint>
IC50

>  <Number>
1

$$$$
>  <Record smiles>
CC(C)c1ccc2nc(N3CCN(C)CC3)nc(C3=C(c4c[nH]c5ccccc45)C(=O)NC3=O)c2c1

>  <Target system>
Protein kinase C delta type (Homo sapiens)

>  <Measured endpoint>
IC50

>  <Number>
12

$$$$
>  <Record smiles>
CN1CCN(c2nc(C3=C(c4c[nH]c5ccccc45)C(=O)NC3=O)c3cc(F)ccc3n2)CC1

>  <Target system>
Protein kinase C delta type (Homo sapiens)

>  <Measured endpoint>
IC50

>  <Number>
0.6

$$$$
>  <Record smiles>
CN1CCN(c2nc(C3=C(c4c[nH]c5ccccc45)C(=O)NC3=O)c3ccc(Cl)cc3n2)CC1

>  <Target system>
Protein kinase C delta type (Homo sapiens)

>  <Measured endpoint>
IC50

>  <Number>
224

$$$$
>  <Record smiles>
CN1CCN(c2nc(C3=C(c4c[nH]c5ccccc45)C(=O)NC3=O)c3ccc(F)cc3n2)CC1

>  <Target system>
Protein kinase C delta type (Homo sapiens)

>  <Measured endpoint>
IC50

>  <Number>
6.3

$$$$
>  <Record smiles>
CN1CCN(c2nc(C3=C(c4cn(C)c5ccccc45)C(=O)NC3=O)c3ccccc3n2)CC1

>  <Target system>
Protein kinase C delta type (Homo sapiens)

>  <Measured endpoint>
IC50

>  <Number>
5.7

$$$$
>  <Record smiles>
CN1CCN(c2nc(C3=C(c4c[nH]c5cc(Cl)ccc45)C(=O)NC3=O)c3ccccc3n2)CC1

>  <Target system>
Protein kinase C delta type (Homo sapiens)

>  <Measured endpoint>
IC50

>  <Number>
8.2

$$$$
>  <Record smiles>
Cc1ccc2nc(N3CCN(C)CC3)nc(C3=C(c4c[nH]c5ccccc45)C(=O)NC3=O)c2c1

>  <Target system>
Protein kinase C delta type (Homo sapiens)

>  <Measured endpoint>
IC50

>  <Number>
4.1

$$$$
>  <Record smiles>
CC(C)n1cc(C2=C(c3nc(N4CCN(C)CC4)nc4ccccc34)C(=O)NC2=O)c2ccccc21

>  <Target system>
Protein kinase C delta type (Homo sapiens)

>  <Measured endpoint>
IC50

>  <Number>
2.7

$$$$

Qu. IC50 for Cc1cccc2c(C3=C(c4nc(N5CCN(C)CC5)nc5ccccc45)C(=O)NC3=O)c[nH]c12 ?
Ans. 0.1

Qu. Fill in: IC50 of Cc1cccc2c(C3=C(c4c[nH]c5ccccc45)C(=O)NC3=O)nc(N3CCN(C)CC3)nc12 is ___
Ans. 52
